All figures here come from BindingDB's records for doi:10.1016/j.ejmech.2019.111807.

Catalogue of pIC50 values
- Assay details: Bioactivation in CYP1A1 (unknown origin) transfected CHO cells assessed as CYP1A1-mediated drug activation by measuring reduction in cell viability
A value of pIC50 is the negative decimal logarithm of a concentration given in moles per litre.

Chemical string	pIC50
CCCCc1c2c(c(C)c3c1C(=O)OC3)Oc1ccccc1O2	6.40

Sample `CCCCCCc1c2c(c(C)c3c1C(=O)OC3)Oc1ccccc1O2` — what was its pIC50?
5.59
